# study.target: hCMV UL130 + UL131A (co-expressed in HEK293T cells) (human cytomegalovirus, UniProt P16772 1-214; F5HET4 19-129)
# assay.notes: cell-based or functional assay

{"columns": ["binder", "50% Neutralization MRC-9"],
 "data": [
  ["4N10 (antibody, V domains shown) VH: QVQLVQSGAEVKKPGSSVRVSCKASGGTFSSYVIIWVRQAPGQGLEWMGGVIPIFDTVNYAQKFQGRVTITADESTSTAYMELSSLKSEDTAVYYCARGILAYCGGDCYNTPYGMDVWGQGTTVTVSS VL: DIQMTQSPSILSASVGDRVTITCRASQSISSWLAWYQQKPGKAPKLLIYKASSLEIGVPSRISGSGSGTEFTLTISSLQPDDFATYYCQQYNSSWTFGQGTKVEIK", "≤ 2 µg/mL"],
  ["8L13 (antibody, V domains shown) VH: QVQLLESGGGVVQPGRSLRLSCAASGFTFSNYGMHWVRQAPGKGLEWVAVIWNDGSKKYYAESVKGRFTISRDNSKNTVYLQMNSLRAEDTAVYYCARDEGVQMVFAMPDYGMDVWGQGTTVTVSS VL: SYELTQPPSVSVSPGQTASITCSGDKLGDKFACWYQQRPGQSPILVIYQDSKRPSGIPERFSGSNSGNTATLTIRGTQAMDEADYYCQAWDSSTAHYVFGTGTKVTVL", "> 2 µg/mL"],
  ["4I22 (antibody, V domains shown) VH: QVQLVESGGGVVQPGRSLRLSCVASGFTFSSYAMHWVRQAPGKGLEWVAVISYDGDNKFYADSVKGRFRISRDTSKNTLYLEMNSLRAADTAIYYCAREELVGLMPPYYNYGLDVWGQGTTVTVSS VL: QSVLTQPPSVSAAPGQKVTISCSGSNSNIGNNYVSWYQQLPGRAPKLLIYDNDHRPSGIPDRFSGSKSGTSATLVITGLQTGDEADYYCETWDTSLSAAVVFGGGTKLTVL", "> 2 µg/mL"],
  ["10F7 (antibody, V domains shown) VH: EVQLVESGGGLVQPGRSLRLSCTASGFTFGDYAMSWFRQAPGKGLEWVGFIRSKAYGGTTEYAASVKGRFTISRDDSKSIAYLQMNSLKTEDTAVYYCTRASSLLWLLNPQPNFDYWGQGTLVTVSS VL: SYVLTQPPSVSVAPGQTARITCGGNNIGSNNVHWYQQKPGQAPVLVVYDDSDRPSGIPERFSGSNSGNTATLTISRVEAGDEADYYCQVWDSSSDHPVFGGGTKLTVL", "≤ 2 µg/mL"],
  ["10P3 (antibody, V domains shown) VH: EVQLVESGGGLVRPGGSLRLSCAASGFTFHNYRMNWVRQAPGKGLEWVANIKQDGSEKSYVDSVRGRFTTSRDNSKNSLYLQINSLRAEDTAVYYCARGEGYTYGVVYSYSAMDVWGQGTTVIVSS VL: SYELTQPPSVSVSPGQTARITCSGNVLPNQYASWYQQKPGQAPVLVIYKDTERPSGIPGRFSGSSSGTTVTLTISGVQAEDEADYYCQSADSSGADYVFGTGTKVTVL", "> 2 µg/mL"]
]}
